- Test system: Arterial blood pressure (ABP)
- test_details: In vivo hypotensive activity: arterial blood pressure (ABP) in anesthetized guinea pig
- applied_conditions: intravenous
attribute_measured: ABP ED20 (dose which reduces arterial blood pressure by 20%) (mg/kg)

[[record]]
molecule = "Cn1c(=O)c2[nH]cnc2n(C)c1=O [Aminophylline, reference compound]"
target_system = "Arterial blood pressure (ABP)"
readout_qualifier = "="
quantitative_readout = 1.4

[[record]]
molecule = "Nc1nc(Cl)nc2c1ncn2C1CCCCO1 (stereo not shown)"
target_system = "Arterial blood pressure (ABP)"
readout_qualifier = ">"
quantitative_readout = 1

[[record]]
molecule = "COc1nc(N)c2ncn(C3CCCCO3)c2n1 (stereo not shown)"
target_system = "Arterial blood pressure (ABP)"
readout_qualifier = ">"
quantitative_readout = 1

[[record]]
molecule = "CCCOc1nc(N)c2ncn(C3CCCCO3)c2n1 (stereo not shown)"
target_system = "Arterial blood pressure (ABP)"
readout_qualifier = "="
quantitative_readout = 1.9

